Test system: 786-0
Label Satisfied when GI50 is strictly below 400 nM; otherwise label Not satisfied.

Please review the following examples before continuing.
COc1ccc(S(=O)(=O)Nc2cc(/C=C\c3cc(OC)c(OC)c(OC)c3)ccc2OC)cc1 [12a] : Satisfied
COc1ccc(S(=O)(=O)Nc2cc(/C=C\c3cc(OC)c(OC)c(OC)c3)cc(OC)c2OC)cc1 [13a] : Satisfied
COc1cc(/C=C\c2cc(OC)c(OC)c(OC)c2)cc(NS(=O)(=O)c2ccc(Cl)cc2)c1OC [13c] : Not satisfied

Req: Lab note: confirm whether the reported GI50 for this compound is below 400 nM, equality not counting. compound: COc1ccc(S(=O)(=O)Nc2c(/C=C\c3cc(OC)c(OC)c(OC)c3)ccc(OC)c2O)cc1 [17a]
Resp: Satisfied

Req: Lab note: confirm whether the reported GI50 for this compound is below 400 nM, equality not counting. compound: COc1ccc(/C=C\c2cc(OC)c(OC)c(OC)c2)c(NS(=O)(=O)c2ccc(Cl)cc2)c1O [17c]
Resp: Not satisfied
